test-summary: Resazurin cell viability assay, the three GRPR-overexpressing cancer cell lines taken together
Assay type: cell-based, human
assay-setup: 6 h initial treatment; read-out: selectivity: fold higher cytotoxicity for GRPR-overexpressing cells than for healthy 184B5 cells
parameter: selectivity ratio

Q) Which selectivity ratio value belongs to CCCCCCCCCCCCCCNC(=O)CN(CCCC[C@H](N)C(=O)N[C@@H](CC(N)=O)C(=O)N[C@@H](CCC(N)=O)C(=O)N[C@@H](Cc1c[nH]c2ccccc12)C(=O)N[C@@H](C)C(=O)N[C@H](C(=O)NCC(=O)N[C@@H](Cc1c[nH]cn1)C(=O)N[C@@H](CC(C)C)C(=O)N[C@@H](CCSC)C(N)=O)C(C)C)C(=O)CCSSC(C)(C)CCNC(=O)CN(C(=O)[C@@H](NC(=O)[C@H]1CCCCN1C)[C@@H](C)CC)[C@H](C[C@@H](OCCC)c1nc(C(=O)N[C@@H](Cc2ccccc2)C[C@H](C)C(=O)O)cs1)C(C)C [compound 22] ?
A) 3.5 to 5.5
